Consider the following compounds; for each one, report its pKi.
target: Carbonic anhydrase 1 (Homo sapiens)
Sequence (P00915 whole entry): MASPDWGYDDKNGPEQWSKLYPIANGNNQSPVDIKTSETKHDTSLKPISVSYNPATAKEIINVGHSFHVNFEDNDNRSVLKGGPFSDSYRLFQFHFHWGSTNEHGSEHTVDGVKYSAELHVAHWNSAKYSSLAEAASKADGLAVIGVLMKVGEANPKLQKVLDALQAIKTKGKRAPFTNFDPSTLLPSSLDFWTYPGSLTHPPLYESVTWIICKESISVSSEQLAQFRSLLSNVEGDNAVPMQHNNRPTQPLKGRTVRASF
Numbers only, as −log10 of the molar value.

Worked examples follow.
[[record]]
compound = "COc1c2c(cc3oc(=O)ccc13)OC(C)(C)C=C2"
test_system = "Carbonic anhydrase 1 (Homo sapiens)"
reported = 5.11

[[record]]
compound = "O=c1oc2c(O)c(O)cc3c(=O)oc4c(O)c(O)cc1c4c23"
test_system = "Carbonic anhydrase 1 (Homo sapiens)"
reported = 4.17

[[record]]
compound = "COc1cc2oc(=O)ccc2cc1O"
test_system = "Carbonic anhydrase 1 (Homo sapiens)"
reported = 4.85


# return pKi for each item in the list
1. CCCc1cc(=O)oc2c3c(c4c(c12)OC(C)(C)C=C4)O[C@H](C)[C@@H](C)[C@H]3O [(+)-CALANOLIDE B]
2. COc1cc2ccc(=O)oc2c(O[C@@H]2O[C@H](CO)[C@@H](O)[C@H](O)[C@H]2O)c1O
3. COc1cc2ccc(=O)oc2c(OC)c1OC

1: 5.03; 2: 5.30; 3: 8.01

# return pKi for each item in the list
1. C/C(=C\COc1ccc2ccc(=O)oc2c1)C1=CC(=O)C(C)(C)O1
2. COc1cc2ccc(=O)oc2cc1O

[5.01, 4.98]

====

target: Carbonic anhydrase 12 (Homo sapiens, UniProt O43570)
Sequence (O43570 whole entry): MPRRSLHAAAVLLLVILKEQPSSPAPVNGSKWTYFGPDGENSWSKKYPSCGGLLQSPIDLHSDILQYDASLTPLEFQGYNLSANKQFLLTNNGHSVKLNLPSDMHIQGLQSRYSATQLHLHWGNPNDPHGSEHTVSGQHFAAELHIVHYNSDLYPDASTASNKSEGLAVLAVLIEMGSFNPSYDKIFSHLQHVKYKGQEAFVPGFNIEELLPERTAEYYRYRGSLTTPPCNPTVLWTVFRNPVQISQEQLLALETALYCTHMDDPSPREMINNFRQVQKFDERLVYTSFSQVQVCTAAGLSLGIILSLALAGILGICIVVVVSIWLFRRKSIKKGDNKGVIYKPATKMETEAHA
In plain terms, low Ki, meaning strictly below 800 nM, gives 1, and everything else gives -1.

[[record]]
smiles_notation = "COc1cc2oc(=O)ccc2cc1O"
test_system = "Carbonic anhydrase 12 (Homo sapiens, UniProt O43570)"
label = -1


Quick check: Ki of `CC1(C)C=Cc2cc3ccc(=O)oc3cc2O1` under 800 nM?
-1

Quick check: Ki of `COc1cc2ccc(=O)oc2cc1O` under 800 nM?
-1

Quick check: Ki of `COc1c2c(cc3oc(=O)ccc13)OC(C)(C)C=C2` under 800 nM?
-1

Quick check: Ki of `C/C(=C\COc1ccc2ccc(=O)oc2c1)C1=CC(=O)C(C)(C)O1` under 800 nM?
-1

Quick check: Ki of `COc1c2c(c3ccc(=O)oc3c1/C=C/C(C)(C)O)OC(C)(C)C=C2` under 800 nM?
1

====

Observed Ki, system Carbonic anhydrase 2 (Homo sapiens, UniProt P00918).
One number for each entry, in µM.

[[record]]
molecule = "CCCc1cc(=O)oc2c3c(c4c(c12)OC(C)(C)C=C4)O[C@H](C)[C@@H](C)[C@H]3O [(+)-CALANOLIDE B]"
reported = 50.7


Quick one: Ki of `COc1c2c(c(OC)c3oc(=O)ccc13)OC(C)(C)C=C2` ?
49.3

====

Consider the following compounds; for each one, report its pKi.
molecular target: Carbonic anhydrase 13 (Homo sapiens)
Sequence (Q8N1Q1 whole entry): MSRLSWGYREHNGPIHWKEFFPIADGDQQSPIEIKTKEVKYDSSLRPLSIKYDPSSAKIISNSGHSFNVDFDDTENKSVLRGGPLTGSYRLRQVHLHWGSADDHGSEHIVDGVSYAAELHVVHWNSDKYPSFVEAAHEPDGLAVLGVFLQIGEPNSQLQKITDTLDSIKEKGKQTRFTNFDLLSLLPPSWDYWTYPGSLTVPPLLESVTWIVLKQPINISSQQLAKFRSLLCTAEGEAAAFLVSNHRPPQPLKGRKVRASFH
Give bare numbers, as −log10 of the molar value.

[[record]]
compound = "COc1c2c(cc3oc(=O)ccc13)OC(C)(C)C=C2 [XANTHOXYLETIN]"
test_system = "Carbonic anhydrase 13 (Homo sapiens)"
reported = 5.50

[[record]]
compound = "C/C(=C\\COc1ccc2ccc(=O)oc2c1)C1=CC(=O)C(C)(C)O1 [GEIPARVARIN]"
test_system = "Carbonic anhydrase 13 (Homo sapiens)"
reported = 5.02

[[record]]
compound = "CCCc1cc(=O)oc2c3c(c4c(c12)OC(C)(C)C=C4)O[C@H](C)[C@@H](C)[C@H]3O [(+)-CALANOLIDE B]"
test_system = "Carbonic anhydrase 13 (Homo sapiens)"
reported = 4.68

[[record]]
compound = "O=c1oc2c(O)c(O)cc3c(=O)oc4c(O)c(O)cc1c4c23 [ELLAGIC ACID]"
test_system = "Carbonic anhydrase 13 (Homo sapiens)"
reported = 5.37


Quick one: pKi of COc1c2c(c3ccc(=O)oc3c1/C=C/C(C)(C)O)OC(C)(C)C=C2 [AVICENNOL] ?
4.53
